Molecular target: EPHA7 (Homo sapiens, UniProt Q15375)
Construct: purchased in-house DSF panel (SGC Frankfurt)
Sequence (Q15375 590-899): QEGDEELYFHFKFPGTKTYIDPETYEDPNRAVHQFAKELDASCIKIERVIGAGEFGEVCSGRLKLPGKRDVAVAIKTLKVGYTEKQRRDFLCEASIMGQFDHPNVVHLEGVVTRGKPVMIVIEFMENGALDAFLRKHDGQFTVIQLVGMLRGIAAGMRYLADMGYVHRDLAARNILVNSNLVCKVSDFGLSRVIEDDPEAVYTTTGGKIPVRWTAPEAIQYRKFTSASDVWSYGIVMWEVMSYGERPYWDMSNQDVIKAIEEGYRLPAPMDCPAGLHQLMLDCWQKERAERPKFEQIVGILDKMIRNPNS
Test: DSF
Assay type: binding
Measurement name: ΔTm EPHA7 (°C)
Numbers only, in °C.

In [3]: df
Out[3]:
                                   compound  measurement_name  recorded_measurement
0  N#CCc1ccc(Nc2nccc(Nc3cc(C4CC4)[nH]n3)n2)cc1 [compound 1, reference compound]         ΔTm EPHA7                   4.9
1  COC(=O)c1cc(Nc2ccnc(NCCOCCNC(=O)OC(C)(C)C)n2)[nH]n1 [21d]         ΔTm EPHA7                   1.3
2  COC(=O)c1cc(Nc2ccnc(NCc3ccc(NC(=O)OC(C)(C)C)cc3)n2)[nH]n1 [21i]         ΔTm EPHA7                   0.6

List the reported ΔTm EPHA7 of each compound below.
1. CC(C)(C)OC(=O)Nc1ccc(CNc2nccc(Nc3cc(C(=O)OC(C)(C)C)[nH]n3)n2)cc1 [43d]
2. CC(C)OC(=O)c1cc(Nc2ccnc(NCc3ccc(NC(=O)OC(C)(C)C)cc3)n2)n[nH]1 [42d]
3. CN[C@@H]1C[C@H]2O[C@@](C)([C@@H]1OC)n1c3ccccc3c3c4c(c5c6ccccc6n2c5c31)C(=O)NC4 [staurosporine, reference compound]

1. -3.4
2. -3.1
3. 10.3

====

So I've got a bunch of molecules here, and I need their ΔTm CAMK1G values.
Target: CAMK1G (Homo sapiens, UniProt Q96NX5)
Construct: purchased in-house DSF panel (SGC Frankfurt)
Sequence (Q96NX5 whole entry): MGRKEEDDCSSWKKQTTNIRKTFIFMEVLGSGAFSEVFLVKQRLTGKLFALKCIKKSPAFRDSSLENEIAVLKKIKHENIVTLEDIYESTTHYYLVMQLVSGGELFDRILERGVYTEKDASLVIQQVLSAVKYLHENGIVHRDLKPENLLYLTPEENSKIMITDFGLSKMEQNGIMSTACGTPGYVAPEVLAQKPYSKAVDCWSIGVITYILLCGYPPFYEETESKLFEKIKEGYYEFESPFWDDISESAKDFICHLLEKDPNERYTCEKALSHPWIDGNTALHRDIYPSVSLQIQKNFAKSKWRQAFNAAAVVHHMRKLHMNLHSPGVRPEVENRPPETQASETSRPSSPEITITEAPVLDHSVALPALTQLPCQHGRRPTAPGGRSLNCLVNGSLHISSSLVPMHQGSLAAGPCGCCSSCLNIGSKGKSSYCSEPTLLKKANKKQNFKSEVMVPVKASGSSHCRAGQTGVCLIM
Assay: DSF
Type: binding
Numbers only, in °C.

In [3]: df
Out[3]:
                                   molecule  recorded_measurement
0  COC(=O)c1cc(Nc2ccnc(NCc3ccc(NC(=O)OC(C)(C)C)cc3)n2)[nH]n1 [21i]                   0.4
1  COC(=O)c1cc(Nc2ccnc(NCCOCCNC(=O)OC(C)(C)C)n2)[nH]n1 [21d]                   0.4
2  CC(C)(C)OC(=O)Nc1ccc(CNc2nccc(Nc3cc(C(=O)OC(C)(C)C)[nH]n3)n2)cc1 [43d]                  -0.7

State the recorded ΔTm CAMK1G for every item in the following list.
1. N#CCc1ccc(Nc2nccc(Nc3cc(C4CC4)[nH]n3)n2)cc1 [compound 1, reference compound]
2. CC(C)OC(=O)c1cc(Nc2ccnc(NCc3ccc(NC(=O)OC(C)(C)C)cc3)n2)n[nH]1 [42d]

1. 5.5
2. -0.2

====

Molecular target: CDK16 (Homo sapiens, UniProt Q00536)
Construct: purchased in-house DSF panel (SGC Frankfurt)
Sequence (Q00536 163-478): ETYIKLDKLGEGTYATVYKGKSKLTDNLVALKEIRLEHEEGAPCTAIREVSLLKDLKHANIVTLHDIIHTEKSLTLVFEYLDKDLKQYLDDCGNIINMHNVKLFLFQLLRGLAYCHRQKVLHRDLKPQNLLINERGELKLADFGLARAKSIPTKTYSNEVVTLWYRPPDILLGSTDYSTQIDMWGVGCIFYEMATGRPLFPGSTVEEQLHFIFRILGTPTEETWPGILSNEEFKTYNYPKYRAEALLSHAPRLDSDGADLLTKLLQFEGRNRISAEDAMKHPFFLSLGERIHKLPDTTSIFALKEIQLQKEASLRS
Assay: DSF
Type: binding
Settings: 10 μM compound
// bucketize ΔTm at 10 µM: low: < 4 °C; mid: ≥ 4 °C and < 6 °C; high: ≥ 6 °C

Which class does COC(=O)c1cc(Nc2nc(Nc3ccc(CCNC(=O)OC(C)(C)C)cc3)nc3ccccc23)[nH]n1 [23a] fall in?
low

Also COC(=O)c1cc(Nc2ccnc(Nc3ccc(CNC(=O)OC(C)(C)C)cc3)n2)[nH]n1 [21h] ?
mid

Can you handle COC(=O)c1cc(Nc2ccnc(Nc3ccc(CC#N)cc3)n2)[nH]n1 [21f] next?
mid

Proceed to CC(C)(C)OC(=O)NCCCCCNc1ncc(Cl)c(Nc2cc(C3CC3)n[nH]2)n1 [13c]
low

And then COC(=O)c1cc(Nc2ccnc(NCc3ccc(CNC(=O)OC(C)(C)C)cc3)n2)[nH]n1 [21g] , what is it?
mid

====

Target: AAK1 (Homo sapiens, UniProt Q2M2I8)
Construct: purchased in-house DSF panel (SGC Frankfurt)
Sequence (Q2M2I8 27-365): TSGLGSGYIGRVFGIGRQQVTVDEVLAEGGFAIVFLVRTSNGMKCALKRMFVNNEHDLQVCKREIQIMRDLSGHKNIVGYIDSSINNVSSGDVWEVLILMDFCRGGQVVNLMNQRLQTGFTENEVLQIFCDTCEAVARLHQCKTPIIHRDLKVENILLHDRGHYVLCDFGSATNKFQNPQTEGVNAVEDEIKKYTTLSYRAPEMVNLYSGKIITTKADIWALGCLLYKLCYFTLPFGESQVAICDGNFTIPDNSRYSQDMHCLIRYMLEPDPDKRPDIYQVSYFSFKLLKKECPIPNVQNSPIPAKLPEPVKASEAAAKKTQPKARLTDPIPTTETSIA
Assay: DSF
Assay type: binding
hey, just use t if measured ΔTm AAK1 is less than 4 °C, otherwise f

>>> print(df.to_string())
                                   compound  group
0  CC(C)(C)OC(=O)Nc1ccc(CNc2nccc(Nc3cc(C(=O)OC(C)(C)C)[nH]n3)n2)cc1 [43d]      t
1  N#CCc1ccc(Nc2nccc(Nc3cc(C4CC4)[nH]n3)n2)cc1 [compound 1, reference compound]      f
2  COC(=O)c1cc(Nc2ccnc(NCc3ccc(NC(=O)OC(C)(C)C)cc3)n2)[nH]n1 [21i]      t

hey, is ΔTm AAK1 for CC(C)OC(=O)c1cc(Nc2ccnc(NCc3ccc(NC(=O)OC(C)(C)C)cc3)n2)n[nH]1 [42d] lower than 4 °C or not?
t

====

Molecular target: MARK3 (Homo sapiens)
Construct: purchased in-house DSF panel (SGC Frankfurt)
Sequence (P27448 whole entry): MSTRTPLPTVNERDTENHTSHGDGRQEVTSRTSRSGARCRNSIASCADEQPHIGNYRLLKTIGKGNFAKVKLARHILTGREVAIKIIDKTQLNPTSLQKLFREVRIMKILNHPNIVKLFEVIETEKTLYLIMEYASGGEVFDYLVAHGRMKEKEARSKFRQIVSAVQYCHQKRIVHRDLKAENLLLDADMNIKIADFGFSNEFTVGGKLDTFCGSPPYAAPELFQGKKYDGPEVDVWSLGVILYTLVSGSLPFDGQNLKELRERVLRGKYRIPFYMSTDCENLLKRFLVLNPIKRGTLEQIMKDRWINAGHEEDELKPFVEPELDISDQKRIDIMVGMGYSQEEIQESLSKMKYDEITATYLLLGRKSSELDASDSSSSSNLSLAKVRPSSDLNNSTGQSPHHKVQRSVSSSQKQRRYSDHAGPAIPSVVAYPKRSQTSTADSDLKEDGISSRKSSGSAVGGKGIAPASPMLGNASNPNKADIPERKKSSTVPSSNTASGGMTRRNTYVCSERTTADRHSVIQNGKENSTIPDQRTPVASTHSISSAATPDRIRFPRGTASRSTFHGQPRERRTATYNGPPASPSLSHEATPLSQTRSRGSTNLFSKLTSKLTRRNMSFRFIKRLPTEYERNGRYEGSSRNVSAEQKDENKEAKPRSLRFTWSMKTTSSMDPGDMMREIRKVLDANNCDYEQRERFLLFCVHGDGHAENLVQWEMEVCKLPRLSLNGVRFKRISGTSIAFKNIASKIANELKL
Assay: DSF
Format: binding
Could you please report measured ΔTm MARK3 for the items listed next?
Answers are plain numbers, in °C.

                                   compound  measurement_name  units_symbol  recorded_measurement
0  CC(C)(C)OC(=O)Nc1ccc(CNc2nccc(Nc3cc(C(=O)OC(C)(C)C)[nH]n3)n2)cc1 [43d]         ΔTm MARK3            °C                  -0.5

# batch size: 4; output ΔTm MARK3 per entry
1. COC(=O)c1cc(Nc2ccnc(NCc3ccc(NC(=O)OC(C)(C)C)cc3)n2)[nH]n1 [21i]
2. CC(C)OC(=O)c1cc(Nc2ccnc(NCc3ccc(NC(=O)OC(C)(C)C)cc3)n2)n[nH]1 [42d]
3. COC(=O)c1cc(Nc2ccnc(NCCOCCNC(=O)OC(C)(C)C)n2)[nH]n1 [21d]
4. N#CCc1ccc(Nc2nccc(Nc3cc(C4CC4)[nH]n3)n2)cc1 [compound 1, reference compound]

[1.5, -0.4, 2.5, 8.1]

====

Target: CSNK1D (Homo sapiens);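 note: compound tested at 10 µM with 2 µM protein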
Construct: purchased in-house DSF panel (SGC Frankfurt)
Sequence (P48730 1-294): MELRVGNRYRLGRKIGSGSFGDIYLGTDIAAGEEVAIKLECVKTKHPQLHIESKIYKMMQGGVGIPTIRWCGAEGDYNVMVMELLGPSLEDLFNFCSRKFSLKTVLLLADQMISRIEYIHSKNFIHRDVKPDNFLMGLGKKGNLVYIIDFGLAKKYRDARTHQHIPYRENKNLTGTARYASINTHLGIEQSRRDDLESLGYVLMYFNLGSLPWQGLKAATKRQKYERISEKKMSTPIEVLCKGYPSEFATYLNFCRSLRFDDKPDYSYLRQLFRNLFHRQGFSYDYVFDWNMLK
Experiment: DSF
Assay type: binding
# strict inequality: ΔTm CSNK1D < 0.8 °C yields True, everything else yields False

>>> df
                                   molecule  group
0  COC(=O)c1cc(Nc2ccnc(NCCOCCNC(=O)OC(C)(C)C)n2)[nH]n1 [21d]   True
1  N#CCc1ccc(Nc2nccc(Nc3cc(C4CC4)[nH]n3)n2)cc1 [compound 1, reference compound]  False
2  COC(=O)c1cc(Nc2ccnc(NCc3ccc(NC(=O)OC(C)(C)C)cc3)n2)[nH]n1 [21i]   True

Now consider a different molecule.
Lab note: confirm whether the reported ΔTm CSNK1D for this molecule is below 0.8 °C, equality not counting. molecule: CC(C)(C)OC(=O)Nc1ccc(CNc2nccc(Nc3cc(C(=O)OC(C)(C)C)[nH]n3)n2)cc1 [43d]
False

====

Biological target: MAP2K4 (Homo sapiens, UniProt P45985)
Construct: purchased in-house DSF panel (SGC Frankfurt)
Sequence (P45985 102-367): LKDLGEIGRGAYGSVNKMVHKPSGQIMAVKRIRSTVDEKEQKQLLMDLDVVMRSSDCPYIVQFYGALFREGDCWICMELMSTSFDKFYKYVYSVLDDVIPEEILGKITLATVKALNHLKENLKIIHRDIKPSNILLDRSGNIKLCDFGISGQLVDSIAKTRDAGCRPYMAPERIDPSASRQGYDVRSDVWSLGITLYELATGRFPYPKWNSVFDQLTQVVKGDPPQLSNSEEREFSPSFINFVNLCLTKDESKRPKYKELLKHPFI
Test: DSF
Type: binding
Binary call on ΔTm MAP2K4 with cut-off 1 °C: strictly below means Criterion met, and equality or higher means Criterion not met.

Example results:
>>> df
                                   compound              group
0  CC(C)OC(=O)c1cc(Nc2ccnc(NCc3ccc(NC(=O)OC(C)(C)C)cc3)n2)n[nH]1 [42d]      Criterion met
1  N#CCc1ccc(Nc2nccc(Nc3cc(C4CC4)[nH]n3)n2)cc1 [compound 1, reference compound]  Criterion not met
2  COC(=O)c1cc(Nc2ccnc(NCc3ccc(NC(=O)OC(C)(C)C)cc3)n2)[nH]n1 [21i]  Criterion not met

Pending compound:
Bench note: check whether COC(=O)c1cc(Nc2ccnc(NCCOCCNC(=O)OC(C)(C)C)n2)[nH]n1 [21d] shows ΔTm MAP2K4 below 1 °C
Criterion met

====

For each entry below, report its EC50 value.
Biological target: CDK4/Cyclin D1 (Homo sapiens)
Construct: Full-length kinases were obtained as plasmids cloned in frame with a terminal NanoLuc-fusion; CS1810C118 (CCND1)
Sequence (P11802 whole entry, the tested form may be a part): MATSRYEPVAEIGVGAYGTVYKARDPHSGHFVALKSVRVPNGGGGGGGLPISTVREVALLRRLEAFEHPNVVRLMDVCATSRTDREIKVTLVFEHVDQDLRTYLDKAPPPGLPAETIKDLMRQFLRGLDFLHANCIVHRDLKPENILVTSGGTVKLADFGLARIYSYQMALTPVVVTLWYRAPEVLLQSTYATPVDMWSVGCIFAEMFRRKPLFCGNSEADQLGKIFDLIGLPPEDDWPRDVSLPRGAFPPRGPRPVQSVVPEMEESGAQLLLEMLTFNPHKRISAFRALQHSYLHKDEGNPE
Sequence (P24385 whole entry partner, the tested form may be a part): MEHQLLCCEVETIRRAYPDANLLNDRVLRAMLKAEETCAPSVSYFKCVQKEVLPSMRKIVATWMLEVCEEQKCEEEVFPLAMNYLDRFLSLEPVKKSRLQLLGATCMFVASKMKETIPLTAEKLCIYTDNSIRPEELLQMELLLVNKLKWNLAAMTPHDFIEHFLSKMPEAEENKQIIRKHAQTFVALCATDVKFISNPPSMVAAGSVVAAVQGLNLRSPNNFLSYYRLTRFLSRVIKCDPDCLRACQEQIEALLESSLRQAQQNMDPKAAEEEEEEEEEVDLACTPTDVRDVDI
Assay: NanoBRET
Conditions: read-out: NanoBRET EC50 ± SEM CDK4/Cyclin D1

                                   molecule  measurement_name  recorded_measurement
0  COC(=O)c1cc(Nc2ccnc(NCc3ccc(NC(=O)OC(C)(C)C)cc3)n2)[nH]n1 [21i]              EC50               10.9 µM
1  CC(C)OC(=O)c1cc(Nc2ccnc(NCc3ccc(NC(=O)OC(C)(C)C)cc3)n2)n[nH]1 [42d]              EC50                1.6 µM
2  N#CCc1ccc(Nc2nccc(Nc3cc(C4CC4)[nH]n3)n2)cc1 [compound 1, reference compound]              EC50             0.0936 µM

Now for another entry.
What measured EC50 goes with CC(C)(C)OC(=O)Nc1ccc(CNc2nccc(Nc3cc(C(=O)OC(C)(C)C)[nH]n3)n2)cc1 [43d] ?
2.14 µM
